Data origin: patent US20240360114A1

tested on: HT-1080 cells; test: HT-1080 cell viability assay (ferroptosis induced by RSL3, Cell Titer-Glo); type: cell-based; settings: Homo sapiens, HT-1080, 20 h, ferroptosis inducer RSL3, 20 hours, ferroptosis inhibitory activity, Table 2
readout-name: EC50

{"columns": ["compound", "result"],
 "data": [
  ["Cc1cc(C)c(NC2CCC(N)CC2)c(C)c1 (centres unmarked)", "1000 to 10000 nM"],
  ["CC1CN(c2ccc(NC[C@H]3CC[C@H](N)CC3)c(C#N)c2)CC(C)O1 (some centres unmarked)", "1000 to 10000 nM"],
  ["CCOC1CCN(c2ccc(NC3CC4(CC(N)C4)C3)c(C)c2)CC1 (centres unmarked)", "0.1 to 100 nM"]
]}

Query: So what EC50 did NC1CCC(Nc2ccncc2)CC1 (centres unmarked) get with HT-1080 cells?
Reply: 1000 to 10000 nM

Query: Now this one: Cc1nc(N2CCOCC2)ccc1NC1C2CC3CC1CC(N)(C3)C2 (centres unmarked)
Reply: 100 to 1000 nM

Query: Now this one: CC1(C)CCC(c2ccc(NC3CCC(O)C3)cc2)CC1 (centres unmarked)
Reply: 0.1 to 100 nM

Query: Now this one: CC(C)(C)c1ccc(NC2CCC(CCCCN)CC2)cc1 (centres unmarked)
Reply: 0.1 to 100 nM

Query: Now this one: CC(C)C1CCN(c2ncc(NC3C4CC5CC3CC(NC(N)=O)(C5)C4)cn2)CC1 (centres unmarked)
Reply: 0.1 to 100 nM

* * *

system: HT-1080 cells; assay: HT-1080 cell viability assay (ferroptosis induced by RSL3, Cell Titer-Glo); assay type: cell-based; conditions: Homo sapiens, HT-1080, 20 h, ferroptosis inducer RSL3, 20 hours, ferroptosis inhibitory activity, Table 2
readout-name: EC50

Previously resolved entries follow.
{"columns": ["compound", "EC50"],
 "data": [
  ["CCN(CCCOC)c1ccc(NC[C@H]2CC[C@H](N)CC2)cc1", "100 to 1000 nM"],
  ["Cc1nc(N2CCCOCC2)ccc1NC1CC2(CC(N)C2)C1 (stereo not drawn)", "100 to 1000 nM"],
  ["Cc1nc(N2C3CCC2COC3)ccc1NC1CC2(CC(N)C2)C1 (stereo not drawn)", "100 to 1000 nM"],
  ["CC(C)(C)c1ccc(NC2CCC(N)CC2)cc1C#N (stereo not drawn)", "100 to 1000 nM"],
  ["CC1(CN)CCC(Nc2ccc(C(C)(C)C)cc2)CC1 (stereo not drawn)", "0.1 to 100 nM"],
  ["CC[C@@H]1CN(c2ccc(NC3CCC(N)CC3)c(C)n2)C[C@@H](CC)O1 (stereo partly drawn)", "0.1 to 100 nM"],
  ["CC(C)(C)c1ccc(NC2CCC(CNC(=O)[C@H]3CNC(=O)N3)CC2)cc1 (single isomer, unassigned) [Compound 143A]", "100 to 1000 nM"],
  ["COCCOc1cc(NC2CCC(N)CC2)ccc1N1CCC(C(F)(F)F)CC1 (stereo not drawn)", "0.1 to 100 nM"]
]}

Query: Requested field: EC50. Item: CCc1c(C)cc(NC2CCC(N)CC2)cc1C (stereo not drawn)
Reply: 0.1 to 100 nM

Query: Now this one: CC(C)(C)c1ccc(N[C@@H]2C[C@H](N)C[C@H](Nc3ccc(C(C)(C)C)cc3)C2)cc1
Reply: 0.1 to 100 nM

Query: Now this one: CC(C)C1CCN(c2ncc(NC[C@H]3CC[C@@H](N)CC3)cn2)CC1
Reply: 0.1 to 100 nM

Query: Now this one: Cc1cc(N2CC(C)OC(C)C2)c(C)cc1NC[C@H]1CC[C@H](N)CC1 (stereo partly drawn)
Reply: 0.1 to 100 nM
